TARGET_OF_ASSAY: Matrix-associated proTGFβ1 (hLTBP1-proTGFβ1 and hLTBP3-proTGFβ1)
TEST_DETAILS: BLI (Octet)
QUANTITY: ECM AVRG (average KD) (nM)
Just the number please, in nM, no unit attached.

BINDER	UNIT_TAG	VALUE_OBSERVED
Ab23 (antibody, V domains shown) VH: EVQLVESGGGLVQPGGSLRLSCAASGFTFSSFSMNWVRQAPGKGLEWVSYISPSADTIYYADSVKGRFTISRDNAKNTLYLQMNSLRAEDTAVYYCARGVLDYGDMLDPWGQGTLVTVSS VL: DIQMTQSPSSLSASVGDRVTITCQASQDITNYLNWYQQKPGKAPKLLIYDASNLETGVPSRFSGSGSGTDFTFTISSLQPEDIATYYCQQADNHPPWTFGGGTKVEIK	nM	0.443

Attention now shifts to the item below.
Suppose we examine the binder Ab24 (antibody, V domains shown) VH: EVQLVESGGGLVQPGRSLRLSCAASGFTFSSFAMYWVRQAPGKGLEWVSYISPDASTIYYADSVKGRFTISRDNAKNSLYLQMNSLRAEDTAVYYCARGVLDYGDMLDPWGQGTLVTVSS VL: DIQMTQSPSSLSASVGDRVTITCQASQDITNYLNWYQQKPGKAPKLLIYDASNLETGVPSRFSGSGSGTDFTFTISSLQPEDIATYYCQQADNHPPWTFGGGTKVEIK ; what ECM AVRG (average KD) value has been reported?
0.222

Sourced from patent US20210122814A1
